Test system: TAOK3
Conditions: concentration: 1 μM, replicates: in singlicate; n = 1;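 note: KINOMEscan kinase panel screen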
observable: %Inh (%)
Answers are plain numbers, in %.

Reference set, count: 2
{"inputSmiles": "CC(=O)Nc1ccc(COc2ccc(Nc3ccnc4cc(-c5ccccn5)ccc34)cc2)cc1.Cl", "%Inh / %": 0}
{"inputSmiles": "COCCNC(=O)c1ccc(-c2cc(C(=O)NC3CC3)cc(F)c2C)cc1", "%Inh / %": 32}

Fill in %Inh for each of the 5 compounds listed.
1. Cl.Oc1cccc(Nc2ccnc3cc(-c4ccncc4)ccc23)c1
2. COC(=O)Nc1nc2cc(Oc3ccc(NC(=O)Nc4cc(F)ccc4F)cc3)ccc2[nH]1.Cl
3. N#Cc1ccc(-c2cc(-c3c[nH]nc3-c3ccccn3)ccn2)cc1
4. CCCCCc1nc2c(N)ncnc2n1CCCCC
5. COc1cc2c(cc1OCCN1CCN(C)CC1)ncc1c3ccc(C#N)cc3[nH]c21

OUT:
1. 0
2. 0
3. 0
4. 0
5. 0

Fill in %Inh for each of the 4 compounds listed.
1. CCc1nc(-c2cccc(C)c2)c(-c2ccnc(NCc3ccccc3)c2)s1
2. N#Cc1c(N2CCOCC2)sc(-c2ccn[nH]2)c1-c1ccc(Cl)cc1
3. Cn1ccc2ncnc(Oc3ccc(NC(=O)Nc4ccncc4)c(Cl)c3)c21
4. O=C(Nc1n[nH]c2cc(-c3cccc(F)c3)ccc12)C1CC1

OUT:
[0, 0, 0, 8]

* * *

Tested on: NEK11
Settings: concentration: 1 μM, replicates: in singlicate; n = 1
observable: %Inh (%)
Numbers only, in %.

Reference set, count: 5
{"compound": "[2H]C([2H])(c1cccc(C(F)(F)F)c1C)n1ccn2c(=O)nc(N3CCOCC3)cc12", "%Inh / %": 0}
{"compound": "NCC(NC(=O)c1cc(-c2cn[nH]c2)c(-c2ccnc3[nH]ccc23)s1)c1ccccc1.O=C(O)C(F)(F)F.O=C(O)C(F)(F)F (stereo not shown)", "%Inh / %": 15}
{"compound": "Cc1cccc(-c2nc(Nc3ccc4ncsc4c3)c3ccccc3n2)n1", "%Inh / %": 0}
{"compound": "Cc1nnc(-c2ccc(C)c(-c3ccc(C(=O)Nc4ccc(NS(C)(=O)=O)cc4)cc3)c2)o1", "%Inh / %": 33}
{"compound": "N#Cc1c(N2CCOCC2)sc(-c2ccn[nH]2)c1-c1ccc(Cl)cc1", "%Inh / %": 0}

Fill in %Inh for each of the 2 compounds listed.
1. CC(=O)Nc1ccc(COc2ccc(Nc3ccnc4cc(-c5ccccn5)ccc34)cc2)cc1.Cl
2. CCc1ccnc(/C=C/c2n[nH]c3cc(Sc4ccccc4C(=O)NC)ccc23)c1

OUT:
1. 0
2. 0

Fill in %Inh for each of the 5 compounds listed.
1. O=C(Nc1n[nH]c2cc(-c3cccc(F)c3)ccc12)C1CC1
2. CCCCCc1nc2c(N)ncnc2n1CCCCC
3. O=C1NC(=O)C(N2CCc3ccccc32)=C1c1cccc(Cl)c1
4. N#Cc1ccc(-c2cc(-c3c[nH]nc3-c3ccccn3)ccn2)cc1
5. Cc1ccc(NC(=O)c2ccnc(N3CCN(C)CC3)c2)cc1-c1ccc(C(=O)NCC2CC2)cc1

OUT:
[37, 0, 0, 5, 0]

Fill in %Inh for each of the 3 compounds listed.
1. O=c1cc(N2CCOCC2)nc2n(Cc3cccc4ccccc34)ccn12
2. CN(C1=C(c2ccccc2)C(=O)NC1=O)c1ccccc1
3. O=c1cc(N2CCOCC2)nc2n(Cc3cccc(Cl)c3Cl)c(C3CC3)nn12

OUT:
0
0
0

Fill in %Inh for each of the 7 compounds listed.
1. O=C(NOCC1CC1)c1ccc(F)c(F)c1Nc1ccc(I)cc1Cl
2. O=C(NCCNc1ccnc(Nc2ccc(F)cc2)n1)c1cc2ccccc2s1
3. COc1ccc(CNC(=O)NC2CCN(c3ccnc(Nc4ccc(OC)cc4)n3)C2)cc1 (stereo not shown)
4. O=C(c1ccc(-c2cc(-c3c[nH]nc3-c3ccccn3)ccn2)cc1)N1CCOCC1
5. Fc1ccc(-c2nn3c(OCC(F)(F)F)cccc3c2-c2ccncc2)cc1
6. Cc1cn2c(=O)cc(N3CCOCC3)nc2n1Cc1cccc(Cl)c1Cl
7. Cc1nnc(-c2ccc3ncc(-c4ccc(S(C)=O)cc4)n3c2)o1 (stereo not shown)

OUT:
[0, 0, 11, 0, 44, 0, 0]

* * *

Test system: MYO3B
Conditions: concentration: 1 μM, replicates: in singlicate; n = 1
observable: %Inh (%)
Give bare numbers, in %.

Reference set, count: 7
{"inputSmiles": "N#Cc1c(N2CCOCC2)sc(-c2ccn[nH]2)c1-c1ccc(Cl)cc1", "unitSymbol": "%", "%Inh": 32}
{"inputSmiles": "Cl.Nc1ncnc2occ(-c3ccc(NC(=O)Nc4cc(C(F)(F)F)ccc4F)cc3)c12", "unitSymbol": "%", "%Inh": 57}
{"inputSmiles": "CCc1ccnc(/C=C/c2n[nH]c3cc(Sc4ccccc4C(=O)NC)ccc23)c1", "unitSymbol": "%", "%Inh": 0}
{"inputSmiles": "Cl.Oc1cccc(Nc2ccnc3cc(-c4ccncc4)ccc23)c1", "unitSymbol": "%", "%Inh": 0}
{"inputSmiles": "Cn1cc(-c2ccc3c(c2)CCN3C(=O)Cc2ccccc2Cl)c2c(N)ncnc21", "unitSymbol": "%", "%Inh": 33}
{"inputSmiles": "Fc1ccc(-c2ncn(CCCN3CCOCC3)c2-c2ccccn2)cc1", "unitSymbol": "%", "%Inh": 10}
{"inputSmiles": "O=C1NC(=O)C(N2CCc3ccccc32)=C1c1cccc(Cl)c1", "unitSymbol": "%", "%Inh": 21}

IN: Give the measured %Inh of Cc1cccc(Cn2ccn3c(=O)cc(N4CCOCC4)nc23)c1 .
OUT: 0

* * *

Tested on: ICK
Conditions: concentration: 1 μM, replicates: in singlicate; n = 1
I'd be grateful if you could share measured %Inh for these entries.
Give bare numbers, in %.

Reference set, count: 5
{"compound": "O=C(NCCNc1ccnc(Nc2ccc(F)cc2)n1)c1cc2ccccc2s1 [GSK1379874]", "observable": "%Inh", "quantitativeReadout": 0}
{"compound": "COc1cc2c(cc1OC[C@@H](O)CO)ncc1c3ccc(C#N)cc3[nH]c21", "observable": "%Inh", "quantitativeReadout": 0}
{"compound": "O=C(c1ccc(-c2cc(-c3c[nH]nc3-c3ccccn3)ccn2)cc1)N1CCOCC1 [GW812171]", "observable": "%Inh", "quantitativeReadout": 0}
{"compound": "Fc1ccc(-c2ncn(CCCN3CCOCC3)c2-c2cccnc2)cc1 [SB-211743]", "observable": "%Inh", "quantitativeReadout": 0}
{"compound": "NS(=O)(=O)c1cccc(-c2ccc3nccc(-c4cccc(S(N)(=O)=O)c4)c3c2)c1 [GW867253]", "observable": "%Inh", "quantitativeReadout": 0}

Fill in %Inh for each of the 3 compounds listed.
1. Cn1cc(-c2ccc3c(c2)CCN3C(=O)Cc2ccccc2Cl)c2c(N)ncnc21 [GSK2608885]
2. C[C@@H](Oc1cc(-n2cnc3ccc(NC(=O)NC(C)(C)C)cc32)sc1C(N)=O)c1ccccc1Cl [GSK346294]
3. CCn1cnc2c(N)ncnc21 [GW345098]

OUT:
1: 5; 2: 0; 3: 0

* * *

Tested on: VPS34
Construct: gene PIK3C3
Conditions: concentration: 1 μM, replicates: in singlicate; n = 1
observable: %Inh (%)
Give bare numbers, in %.

Reference set, count: 4
{"compound": "Cn1cc(-c2ccc3c(c2)CCN3C(=O)Cc2ccccc2Cl)c2c(N)ncnc21", "experimentalTarget": "VPS34", "observable": "%Inh", "quantitativeReadout": 0}
{"compound": "O=C(NCCNc1ccnc(Nc2ccc(F)cc2)n1)c1cc2ccccc2s1", "experimentalTarget": "VPS34", "observable": "%Inh", "quantitativeReadout": 16}
{"compound": "O=C1NC(=O)C(N2CCc3ccccc32)=C1c1cccc(Cl)c1", "experimentalTarget": "VPS34", "observable": "%Inh", "quantitativeReadout": 0}
{"compound": "COc1ccc(Nc2nccc(N3CCC(NC(=O)Nc4cccc(C(C)=O)c4)C3)n2)cc1 (stereo not shown)", "experimentalTarget": "VPS34", "observable": "%Inh", "quantitativeReadout": 31}

Fill in %Inh for each of the 6 compounds listed.
1. Cc1ccc(NC(=O)c2ccnc(N3CCN(C)CC3)c2)cc1-c1ccc(C(=O)NCC2CC2)cc1
2. Fc1ccc(-c2ncn(CCCN3CCOCC3)c2-c2cccnc2)cc1
3. O=C1Cc2cc(Nc3nc(NCc4cccc(S(=O)(=O)C(F)(F)F)c4)ncc3C(F)(F)F)ccc2N1
4. O=C(NCCCN1CCOCC1)c1cccc(Nc2nccc(Nc3ccc(Oc4ccccc4)cc3)n2)c1
5. CN(C1=C(c2ccccc2)C(=O)NC1=O)c1ccccc1
6. Cl.Nc1ncnc2occ(-c3ccc(NC(=O)Nc4cc(C(F)(F)F)ccc4F)cc3)c12

OUT:
[0, 0, 0, 0, 0, 5]
